Reported Max MFI values follow for various binders
- ASSAY_SYSTEM: T1, cynomolgus CCR8 (cynomolgus, UniProt G7NYJ2 1-355)
- T1 construct: whole, on cells
- T1 sequence (G7NYJ2 entry or part of it): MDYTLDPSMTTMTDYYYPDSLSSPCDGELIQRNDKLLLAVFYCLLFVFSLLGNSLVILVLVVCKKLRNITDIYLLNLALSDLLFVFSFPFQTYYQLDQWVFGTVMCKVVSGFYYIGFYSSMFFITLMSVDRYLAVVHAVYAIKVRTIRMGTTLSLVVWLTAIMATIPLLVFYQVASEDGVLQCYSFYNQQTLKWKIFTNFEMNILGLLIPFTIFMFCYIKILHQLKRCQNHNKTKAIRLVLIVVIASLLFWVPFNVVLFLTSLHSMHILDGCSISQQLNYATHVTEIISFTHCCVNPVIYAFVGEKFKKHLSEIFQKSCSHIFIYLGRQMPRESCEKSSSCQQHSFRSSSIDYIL
- PROTOCOL: FACS on HEK293-cynomolgus CCR8 cells
ENDPOINT_LABEL: Max MFI

BINDER	ENDPOINT_LABEL	EXPERIMENTAL_RESULT
Hu149-4 (antibody, human IgG1, V domains shown, humanized, human IgG1; also called Hu149-4 HuIgG1) VH: EVQLVESGGGLVQPGGSLKLSCAASGFTFNTYAMNWVRQASGKGLEWVGRIRSKSNFYATYYAASVKGRFTISRDDSKNTAYLQMNSLKTEDTAVYYCTRGRDYGSSYAMDYWGQGTLVTVSS VL: DIVMTQSPLSLPVTPGEPASISCRSSKSLLHSNANTYLYWFLQKPGQSPQLLIYRMSNLASGVPDRFSGSGSGTDFTLKISRVEAEDVGVYYCMQHLEYPLTFGGGTKVELK	Max MFI	26500 MFI
Hu149-6 (antibody, V domains shown, humanized IgG) VH: EVQLVESGGGLVQPGGSLKLSCAASGFTFNTYAMHWVRQASGKGLEWVGRIRSKSNFYATYYAASVKGRFTISRDDSKNTAYLQMNSLKTEDTAVYYCVRGRDYGSSYAMDYWGQGTLVTVSS VL: DIVMTQSPLSLPVTPGEPASISCRSSKSLLHSNANTYLYWYLQKPGQSPQLLIYRMSNLASGVPDRFSGSGSGTDFTLKISRVEAEDVGVYYCMQHLEYPLTFGGGTKVELK	Max MFI	443 MFI
Hu149-8 (antibody, V domains shown, humanized IgG) VH: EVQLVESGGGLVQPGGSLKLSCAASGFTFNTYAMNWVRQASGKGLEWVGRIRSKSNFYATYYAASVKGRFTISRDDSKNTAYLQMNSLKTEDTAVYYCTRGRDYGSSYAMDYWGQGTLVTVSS VL: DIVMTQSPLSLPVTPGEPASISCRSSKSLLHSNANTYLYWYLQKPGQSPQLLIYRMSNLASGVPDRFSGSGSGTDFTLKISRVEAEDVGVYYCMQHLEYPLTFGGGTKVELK	Max MFI	2420 MFI
Hu149-7 (antibody, V domains shown, humanized IgG) VH: EVQLVESGGGLVQPGGSLKLSCAASGFTFNTYAMNWVRQASGKGLEWVGRIRSKSNFYATAYAASVKGRFTISRDDSKNTAYLQMNSLKTEDTAVYYCVRGRDYGSSYAMDYWGQGTLVTVSS VL: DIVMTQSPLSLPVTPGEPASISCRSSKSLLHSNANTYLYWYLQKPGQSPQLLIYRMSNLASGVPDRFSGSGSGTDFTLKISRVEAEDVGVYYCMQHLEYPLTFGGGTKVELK	Max MFI	488 MFI

FYI, the data here is from patent US20250034266A1.
